system: 5'-AMP-activated protein kinase catalytic subunit alpha-1 (Homo sapiens) (UniProt Q13131);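 also: mean percent inhibition of the AMPK A1B1G1 complex (alpha1 beta1 gamma1) in the GSK PKIS kinase inhibitor screen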
Sequence (Q13131 whole entry, looked up): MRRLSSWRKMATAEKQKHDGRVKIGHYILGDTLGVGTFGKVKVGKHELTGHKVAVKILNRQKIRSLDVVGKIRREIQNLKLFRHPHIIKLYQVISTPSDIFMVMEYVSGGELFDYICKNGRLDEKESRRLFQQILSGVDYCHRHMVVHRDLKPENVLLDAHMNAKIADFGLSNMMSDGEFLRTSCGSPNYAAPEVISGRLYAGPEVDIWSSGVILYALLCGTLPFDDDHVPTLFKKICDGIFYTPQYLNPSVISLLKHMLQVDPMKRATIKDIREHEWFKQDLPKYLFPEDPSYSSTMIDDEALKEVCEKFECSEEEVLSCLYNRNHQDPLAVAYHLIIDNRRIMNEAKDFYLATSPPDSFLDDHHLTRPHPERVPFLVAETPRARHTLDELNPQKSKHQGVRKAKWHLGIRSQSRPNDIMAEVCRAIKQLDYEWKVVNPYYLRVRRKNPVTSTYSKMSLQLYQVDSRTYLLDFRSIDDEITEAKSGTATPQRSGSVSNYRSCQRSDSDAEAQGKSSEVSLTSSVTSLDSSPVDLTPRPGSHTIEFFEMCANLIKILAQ
recordedConditions: at 1 µM
measurementKind: inhibition (%)
The figure you give is taken to be in %; do not add the unit.

The following molecules have reported results that may help.
INSERT INTO assay_data (compoundsmiles, measurementkind, observed) VALUES
  ('Nc1nonc1-c1nc2cnccc2n1C1CCCCC1', 'inhibition', 5.36),
  ('COc1cccc(COc2cc(-n3cnc4ccccc43)sc2C(N)=O)c1', 'inhibition', 2.35),
  ('CCn1c(-c2nonc2N)nc2c(C#CC(C)(C)O)nc(O[C@@H](CN)c3ccccc3)cc21', 'inhibition', 88.1),
  ('NC(=O)c1sc(-n2cnc3cc(C(F)(F)F)ccc32)cc1OCc1ccccc1Br', 'inhibition', 2.17),
  ('CCn1c(-c2nonc2N)nc2c(C#CCN)ncc(OCCCN)c21', 'inhibition', 4.78);

Consider the molecule NS(=O)(=O)c1ccc(N/C=C2\C(=O)Nc3ccc4ncsc4c32)cc1 and give its measured inhibition. 59.9
